System: pERK in HCT116 cells
Assay: Inhibition of KRas phosphorylation of ERK (Cisbio HTRF pERK assay)
Conditions: Homo sapiens, HCT-116, read-out: Inhibition (HTRF IC50) of KRas-mediated Phosphorylation of ERK, HCT116
Examples of compounds with documented log10(IC50) follow.
Plainly stated, the numbers are log10 of IC50 given in nM.

Guide cases for log10(IC50), answers given:
CCc1c(F)ccc2cc(O)cc(-c3ncc4c(N5CCCC6(CNC(=O)N6)C5)nc(OC[C@@]56CCCN5C[C@H](F)C6)nc4c3F)c12 (some centres unmarked)	2.56
CCc1c(F)ccc2cc(O)cc(-c3ncc4c(N5CCOCC6(C5)NC(=O)NC6=O)nc(OC[C@@]56CCCN5C[C@H](F)C6)nc4c3F)c12 (some centres unmarked)	2.64

Field request: log10(IC50) | item: OCC1COCCN(c2nc(OC[C@@]34CCCN3C[C@H](F)C4)nc3c(F)c(-c4cc(O)cc5ccc(F)c(Br)c45)ncc23)C1 (some centres unmarked)
3.06

Field request: log10(IC50) | item: CCc1c(F)ccc2cc(O)cc(-c3ncc4c(N5CCCOC(CO)C5)nc(OC[C@@]56CCCN5C[C@H](F)C6)nc4c3F)c12 (some centres unmarked)
2.11

Field request: log10(IC50) | item: CCc1c(F)ccc2cc(O)cc(-c3ncc4c(NCc5ccc6nccn6c5)nc(OC[C@@]56CCCN5C[C@H](F)C6)nc4c3F)c12
2.54

Field request: log10(IC50) | item: CCc1c(F)ccc2cc(O)cc(-c3ncc4c(N5CCOCC(C)(O)C5)nc(OC[C@@]56CCCN5C[C@H](F)C6)nc4c3F)c12 (some centres unmarked)
1.80

Field request: log10(IC50) | item: CCc1c(F)ccc2cc(O)cc(-c3ncc4c(N5CCC[C@@](C)(O)C5)nc(OC[C@@]56CCCN5[C@@H](CO)CC6)nc4c3F)c12
2.66

Field request: log10(IC50) | item: O=C1C[C@]2(CCCN(c3nc(OC[C@@]45CCCN4C[C@H](F)C5)nc4c(F)c(-c5cc(O)cc6ccc(F)c(Cl)c56)ncc34)C2)N1
3.34

Field request: log10(IC50) | item: CCc1c(F)ccc2cc(O)cc(-c3ncc4c(N5CCC[C@@](C)(O)C5)nc(OCC5(CN6CCOCC6)CC5)nc4c3F)c12
1.68

* * *

Target: KRas G12V (Homo sapiens, UniProt P01116, G12V)
Sequence (P01116 1-169 isoform P01116-2 G12V): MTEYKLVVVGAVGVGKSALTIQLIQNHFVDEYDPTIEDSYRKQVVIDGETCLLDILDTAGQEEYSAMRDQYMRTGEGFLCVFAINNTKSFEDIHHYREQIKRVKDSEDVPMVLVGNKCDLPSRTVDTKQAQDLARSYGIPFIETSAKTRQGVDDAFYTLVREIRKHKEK
Experiment: biochemical
Examples of compounds with documented IC50 follow.

Guide cases for IC50, answers given:
CCc1c(F)ccc2cc(O)cc(-c3ncc4c(N5CC6CC(O)C(C6)C5)nc(OC[C@@]56CCCN5C[C@H](F)C6)nc4c3F)c12 (stereo partly drawn)	≤ 2 nM
O=S1(=O)NC[C@]2(CCCN(c3nc(OC[C@@]45CCCN4C[C@H](F)C5)nc4c(F)c(-c5cc(O)cc6ccc(F)c(Cl)c56)ncc34)C2)N1	≤ 2 nM

Let's switch to this compound now.
Field request: IC50 | item: CCc1c(F)ccc2cc(O)cc(-c3ncc4c(N5CCC[C@]6(C5)NC(=O)NC6=O)nc(OC[C@@]56CCCN5C[C@H](F)C6)nc4c3F)c12
≤ 2 nM

* * *

Molecular target: KRas Q61H (Homo sapiens, UniProt P01116, Q61H)
Construct: Biotinylated KRas (corresponding to amino acids 1-169, produced at Accelegan Inc.); biotin (biotinylated); purchased Accelegan Inc
Sequence (P01116 1-169 isoform P01116-2 Q61H): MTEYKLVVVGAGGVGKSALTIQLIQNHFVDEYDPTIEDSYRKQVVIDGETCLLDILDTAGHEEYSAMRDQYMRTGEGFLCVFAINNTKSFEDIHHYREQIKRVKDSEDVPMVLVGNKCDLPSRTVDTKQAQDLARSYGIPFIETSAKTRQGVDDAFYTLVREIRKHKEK
Assay: KRas binding assay (TR-FRET displacement)
Value Type: log10 IC50 (log10 of the value in nM)
Plainly stated, the numbers are log10 of IC50 given in nM.

Guide cases for log10 IC50, answers given:
CN(C)C(=O)c1cc2n(n1)CCCN(c1nc(OCC34CCCN3CCC4)nc3c(F)c(-c4cccc5cccc(F)c45)ncc13)C2	3.03
Fc1c(-c2cccc3cccc(F)c23)ncc2c(N3CCCC4(CC(F)C4)C3)nc(OCC34CCCN3CCC4)nc12 (stereo not shown)	3.41
O=C1NC2(CCN(c3nc(OCC45CCCN4CCC5)nc4c(F)c(-c5cccc6cccc(F)c56)ncc34)CC2)CO1	3.99
NS(=O)(=O)CC1CCCN(c2nc(OCC34CCCN3CCC4)nc3c(F)c(-c4cccc5cccc(F)c45)ncc23)C1 (stereo not shown)	2.36
Fc1c(-c2cccc3cccc(F)c23)ncc2c(N3CCCC4(CCC(F)C4)C3)nc(OCC34CCCN3CCC4)nc12 (stereo not shown)	4.30
O=C1CC(CNc2nc(OCC34CCCN3CCC4)nc3c(F)c(-c4cccc5cccc(F)c45)ncc23)CN1 (stereo not shown)	4.14

Let's switch to this compound now.
Lab note: need log10 IC50 for NC(=O)N1CC(Nc2nc(OCC34CCCN3CCC4)nc3c(F)c(-c4cccc5cccc(Cl)c45)ncc23)C1 on KRas Q61H (Homo sapiens, UniProt P01116, Q61H), anyone have it?
3.94

* * *

Biological target: KRas G13D (Homo sapiens, UniProt P01116, G13D)
Construct: Biotinylated KRas (corresponding to amino acids 1-169, produced at Accelegan Inc.); biotin (biotinylated); purchased Accelegan Inc
Sequence (P01116 1-169 isoform P01116-2 G13D): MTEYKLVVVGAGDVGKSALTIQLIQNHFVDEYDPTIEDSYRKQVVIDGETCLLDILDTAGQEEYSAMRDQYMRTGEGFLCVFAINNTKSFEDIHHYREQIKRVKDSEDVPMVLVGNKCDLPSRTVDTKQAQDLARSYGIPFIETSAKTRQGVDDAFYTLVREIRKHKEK
Test: KRas binding assay (TR-FRET displacement)
Examples of compounds with documented IC50 follow.

Guide cases for IC50, answers given:
Nc1cc2n(n1)CCCN(c1nc(OCC34CCCN3CCC4)nc3c(F)c(-c4cccc5cccc(F)c45)ncc13)C2	3800 nM
O=C1NC(=O)C2(CCCN(c3nc(OCC45CCCN4CCC5)nc4c(F)c(-c5cccc6cccc(F)c56)ncc34)C2)N1 (stereo not drawn)	83 nM

Lab note: need IC50 for Fc1c(-c2cccc3cccc(F)c23)ncc2c(NCCCc3cccnc3)nc(OCC34CCCN3CCC4)nc12 on KRas G13D (Homo sapiens, UniProt P01116, G13D), anyone have it?
7820 nM

* * *

Target: KRas G12V (Homo sapiens, UniProt P01116, G12V)
Assay: biochemical
Value Type: pIC50
pIC50 is a log-scale quantity: -log10 of the concentration expressed in molar.

Fc1c(-c2cccc3cccc(Cl)c23)ncc2c(N3CC(n4ccnc4)C3)nc(OCC34CCCN3CCC4)nc12 [Example 101]	6.02

Field request: pIC50 | item: Fc1c(-c2cccc3cccc(F)c23)ncc2c(NCc3nnc4cccnn34)nc(OCC34CCCN3CCC4)nc12 [Example 122]
5.16

* * *

Target: KRas G12D (Homo sapiens, UniProt P01116, G12D)
Sequence (P01116 1-169 isoform P01116-2 G12D): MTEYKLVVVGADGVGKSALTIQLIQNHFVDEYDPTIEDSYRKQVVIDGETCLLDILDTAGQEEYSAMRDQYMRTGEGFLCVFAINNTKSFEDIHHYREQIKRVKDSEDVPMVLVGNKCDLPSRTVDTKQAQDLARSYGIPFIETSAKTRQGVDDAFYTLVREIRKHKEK
Assay: biochemical
pIC50: −log10 of the molar value.
Value Type: pIC50

Guide cases for pIC50, answers given:
CCc1c(F)ccc2cc(O)cc(-c3ncc4c(NCc5ccc6nccn6c5)nc(OC[C@@]56CCCN5C[C@H](F)C6)nc4c3F)c12 [Example 156]	≥ 8.70
Cc1c(F)ccc2cc(O)cc(-c3ncc4c(N5CCCC(CS(N)(=O)=O)C5)nc(OC[C@@]56CCCN5C[C@H](F)C6)nc4c3F)c12 (stereo partly drawn) [Example 461]	≥ 8.70

Lab note: need pIC50 for C#Cc1c(F)ccc2cc(O)cc(-c3ncc4c(N5CCCC6(C5)NC(=O)NC6=O)nc(OC[C@@]56CCCN5C[C@H](F)C6)nc4c3F)c12 (stereo partly drawn) [Example 397] on KRas G12D (Homo sapiens, UniProt P01116, G12D), anyone have it?
≥ 8.70

* * *

Target: KRas G12D (Homo sapiens, UniProt P01116, G12D);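 also: TR-FRET displacement binding assay on KRas, read after a one-hour incubation at room temperature, IC50 fitted from percent-of-control values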
Experiment: biochemical
Value Type: IC50

Guide cases for IC50, answers given:
Fc1c(-c2cccc3cccc(F)c23)ncc2c(NCc3nnc4cccnn34)nc(OCC34CCCN3CCC4)nc12	≥ 100000 nM
CCc1c(F)ccc2cc(O)cc(-c3ncc4c(N5CCCn6nc(C(=O)N(C)C)cc6C5)nc(OCC5(CN(C)C)CC5)nc4c3F)c12	≤ 2 nM
CCc1c(F)ccc2cc(O)cc(-c3ncc4c(N5CCCC6(CNC(=O)C6)C5)nc(OC[C@@]56CCCN5C[C@H](F)C6)nc4c3F)c12 (some centres unmarked)	≤ 2 nM
Nc1cc2n(n1)CCCN(c1nc(OC[C@@]34CCCN3C[C@H](F)C4)nc3c(F)c(-c4cc(O)cc5ccc(F)c(Br)c45)ncc13)C2	≤ 2 nM

Let's switch to this molecule now.
Field request: IC50 | item: CCc1c(F)ccc2cc(O)cc(-c3ncc4c(N5CCCC6(C5)NC(=O)NC6=O)nc(OCC5(CN(C)C)CC5)nc4c3F)c12 (centres unmarked)
≤ 2 nM

* * *

Examples of compounds with documented IC50 follow.
Molecular target: KRas G12V (Homo sapiens, UniProt P01116, G12V);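 also: KRas binding measured by TR-FRET displacement at room temperature, IC50 fitted from percent of control values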
Test: biochemical

CCc1c(F)ccc2cc(O)cc(-c3ncc4c(N5CCC[C@@](C)(O)C5)nc(OCC5(CN6CCCCC6)CC5)nc4c3F)c12 [Example 331]	≤ 2 nM
CCc1c(F)ccc2cc(O)cc(-c3ncc4c(NCC5CCC(=O)N5)nc(OC[C@@]56CCCN5C[C@H](F)C6)nc4c3F)c12 (stereo partly drawn) [Example 371]	≤ 2 nM

Field request: IC50 | item: O=C1NC(=O)C2(CCCN(c3nc(OC[C@@]45CCCN4C[C@H](F)C5)nc4c(F)c(-c5cc(O)cc6ccc(F)c(F)c56)ncc34)C2)N1 (stereo partly drawn) [Example 444]
≤ 2 nM
